# Tested on: NF-κ B activation
# Assay overview: Inhibitory activity of NF-κB activation, luciferase reporter assay under TNF-α stimulation in HepG2
# Assay type: cell-based, human
# Condition description: Drug concentration at 10 μg/mL; HepG2, TNF-α 40 ng/ml, 4 hours
Recorded Inhibitory rate against NF-κB activation (%) values for a group of compounds are listed next.
Lab book: enter the figure in %, no units written.

Worked examples, 3 compounds total:
>  <Chemical string>
Cc1ccc(S(=O)(=O)c2ccc(Cl)c(NC(=O)c3cc(Cl)ccc3O)c2)cc1

>  <Experimental system>
NF-κ B activation

>  <Value measured>
95.9

$$$$
>  <Chemical string>
O=C(Nc1nc(-c2ccccc2)c(-c2ccccc2)s1)c1cc(Br)ccc1O

>  <Experimental system>
NF-κ B activation

>  <Value measured>
67.0

$$$$
>  <Chemical string>
O=C(Nc1ccc(Cl)nc1)c1cc(Cl)ccc1O

>  <Experimental system>
NF-κ B activation

>  <Value measured>
92.3

$$$$

Sample `COc1ccc(C)c(NC(=O)c2cc(Cl)ccc2O)c1` ; Inhibitory rate against NF-κB activation (%) observed: 96.5

According to the records, this compound `CC(C)(C)c1ccc(C(C)(C)C)c(NC(=O)c2cc(Cl)ccc2O)c1` displays Inhibitory rate against NF-κB activation (%) of 96.3

Inhibitory rate against NF-κB activation (%) in this record for `CC(=NOCc1ccccc1)c1ccc(O)c(C(=O)Nc2cc(C(F)(F)F)cc(C(F)(F)F)c2)c1` : 99.2

Short answer for `O=C(Nc1ccc(O)c(C(=O)Nc2cc(C(F)(F)F)cc(C(F)(F)F)c2)c1)c1ccccc1` : Inhibitory rate against NF-κB activation (%) was 63.4

Consider `O=C(Nc1cc(C(F)(F)F)cc(C(F)(F)F)c1)c1ccc(F)cc1O` . Its measured Inhibitory rate against NF-κB activation (%) is 95.4

The compound identified as `Cc1ccc(C(C)C)cc1NC(=O)c1cc(Cl)ccc1O` registered its Inhibitory rate against NF-κB activation (%) at 98.2

The measured Inhibitory rate against NF-κB activation (%) associated with `Cc1ccc(O)c(C(=O)Nc2cc(C(F)(F)F)ccc2C(F)(F)F)c1` reads 96.6

Sample `O=C(Nc1cc(Cl)cc(Cl)c1)c1cc([N+](=O)[O-])ccc1O` ; Inhibitory rate against NF-κB activation (%) observed: 70.6

Just so you know, measured Inhibitory rate against NF-κB activation (%) for `COc1ccc(Oc2ccc(C(F)(F)F)cc2NC(=O)c2cc(Cl)ccc2O)cc1` came out at 99.5

Kindly note the recorded Inhibitory rate against NF-κB activation (%) for `O=C(Nc1cc(F)ccc1F)c1cc(Cl)ccc1O` , which is 93.4

Entry `CC(=O)Oc1ccc(Cl)cc1C(=O)Nc1nc(C(C)(C)C)c(C(=O)C(C)(C)C)s1` — recorded Inhibitory rate against NF-κB activation (%) = 97.7

Data point: `COc1cc(NC(=O)c2cc(Br)ccc2O)cc(OC)c1` ; Inhibitory rate against NF-κB activation (%) = 96.8

Note to self: Inhibitory rate against NF-κB activation (%) recorded for `CC(=O)Oc1ccc(Cl)cc1C(=O)Nc1cc(C(F)(F)F)cc(C(F)(F)F)c1` was 99.2

Input `Cc1sc(NC(=O)c2cc(Br)ccc2O)nc1-c1ccccc1` . Output Inhibitory rate against NF-κB activation (%): 94.4

response.value for `O=C(Nc1cc(-c2ccccc2)[nH]n1)c1cc(Br)ccc1O` (field: Inhibitory rate against NF-κB activation (%)) = 84.7

Record summary for `O=C(Nc1nc(Cc2ccccc2)c(-c2ccccc2)s1)c1cc(Br)ccc1O` : reported Inhibitory rate against NF-κB activation (%) = 95.0

Sure, the documented Inhibitory rate against NF-κB activation (%) for `Cc1ccc(C(F)(F)F)cc1NC(=O)c1cc(Cl)ccc1O` is 97.9

Please fill in: Inhibitory rate against NF-κB activation (%) reported for `CC(=O)Nc1cc(O)c(C(=O)Nc2cc(C(F)(F)F)cc(C(F)(F)F)c2)cc1Cl` = 96.0

// Inhibitory rate against NF-κB activation (%) lookup, compound = `COc1ccc(OC)c(NC(=O)c2cc3ccccc3cc2O)c1` , result: 86.8

// `COc1ccc(C(C)(C)C)cc1NC(=O)c1cc(C)ccc1O` : Inhibitory rate against NF-κB activation (%) value = 87.1

According to the records, this compound `CCCCOc1ccc(OCCCC)c(NC(=O)c2cc(Cl)ccc2O)c1` displays Inhibitory rate against NF-κB activation (%) of 97.6

Value source: patent US20080234233A1
